# system-name: human TLR7 (Homo sapiens, UniProt Q9NYK1)
# Construct: expressed in transfected cells; host or cells: HEK 293
# Sequence (Q9NYK1 27-1049): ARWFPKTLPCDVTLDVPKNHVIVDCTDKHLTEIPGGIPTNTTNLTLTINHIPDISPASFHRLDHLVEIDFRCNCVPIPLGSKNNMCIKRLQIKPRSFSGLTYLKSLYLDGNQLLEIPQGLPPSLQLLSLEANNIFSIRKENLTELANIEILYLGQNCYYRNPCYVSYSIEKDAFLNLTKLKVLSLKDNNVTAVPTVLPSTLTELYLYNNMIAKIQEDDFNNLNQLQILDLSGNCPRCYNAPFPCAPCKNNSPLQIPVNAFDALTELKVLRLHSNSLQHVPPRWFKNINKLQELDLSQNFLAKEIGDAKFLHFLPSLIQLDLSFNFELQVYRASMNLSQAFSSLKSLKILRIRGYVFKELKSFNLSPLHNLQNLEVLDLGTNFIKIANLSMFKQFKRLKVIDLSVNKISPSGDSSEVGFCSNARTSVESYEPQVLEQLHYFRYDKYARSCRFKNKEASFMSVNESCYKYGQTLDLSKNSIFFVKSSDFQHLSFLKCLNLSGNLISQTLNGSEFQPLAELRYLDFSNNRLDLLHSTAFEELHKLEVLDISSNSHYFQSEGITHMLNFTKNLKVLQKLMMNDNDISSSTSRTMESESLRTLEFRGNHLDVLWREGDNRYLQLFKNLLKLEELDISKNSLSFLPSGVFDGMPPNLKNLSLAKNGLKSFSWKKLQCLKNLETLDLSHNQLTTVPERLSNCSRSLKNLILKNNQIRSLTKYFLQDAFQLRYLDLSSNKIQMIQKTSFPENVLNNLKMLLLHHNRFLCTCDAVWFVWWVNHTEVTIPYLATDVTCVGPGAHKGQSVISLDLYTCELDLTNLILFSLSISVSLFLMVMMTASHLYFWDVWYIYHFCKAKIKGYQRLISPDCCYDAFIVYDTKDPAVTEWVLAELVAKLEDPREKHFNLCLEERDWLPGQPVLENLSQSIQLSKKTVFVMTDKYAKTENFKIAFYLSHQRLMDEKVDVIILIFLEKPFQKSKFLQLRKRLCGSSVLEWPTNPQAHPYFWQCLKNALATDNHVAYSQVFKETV
# assay-name: Reporter gene assay, HEK293-TLR7 (NF-kB-driven luciferase)
# Format: cell-based
# condition-info: TLR-7 stimulation; read-out: Human TLR-7 EC50
quantity-measured: EC50

Query string: Which EC50 value is on record for Cc1ccc2c(c1)nc(N)c1ncc(CCc3ccc(CCCO)cc3)cc12 ?
Result string: 35 nM

Query string: Bench note: what EC50 did CCN1CCN(C(=O)c2ccc(CCc3cnc4c(N)nc5cc(C)ccc5c4c3)c(C)c2)CC1 show?
Result string: 275 nM

Query string: What value of EC50 has been recorded for this entry: Cc1ccc2c(c1)nc(N)c1ncc(CCc3ccc(Oc4ccccc4)cc3)cc12
Result string: 347 nM

Query string: For the compound Cc1ccc2c(c1)nc(N)c1ncc(CCc3ccc(OCCN4CCOCC4)cc3C)cc12 , what EC50 is on record?
Result string: 14 nM

Query string: I have this compound here, COC(=O)CCc1ccc(CCc2cnc3c(N)nc4cc(C)ccc4c3c2)cc1 , and I need its recorded EC50.
Result string: 582 nM

Query string: Consider the compound CCCOC(=O)Oc1ccc(CCc2cnc3c(N)nc4cc(C)ccc4c3c2)cc1 and give its measured EC50.
Result string: 213 nM

Query string: Need EC50, item Cc1ccc2c(c1)nc(N)c1ncc(CCc3ccc(CCC(C)(C)O)cc3)cc12
Result string: 24 nM

Query string: Would you mind telling me what EC50 value was observed for Cc1ccc(CCc2cnc3c(N)nc4ccccc4c3c2)c(C)c1 ?
Result string: 361 nM

Query string: Value lookup for EC50; key = Cc1ccc2c(c1)nc(N)c1ncc(CCc3ccc4[nH]ccc4c3)cc12
Result string: 107 nM

Query string: Requested field: EC50. Item: COc1ccc(CCc2cnc3c(N)nc4cc(C)ccc4c3c2)cc1OC
Result string: 562 nM

###

Please go through the items and note down their EC50.
# system-name: human TLR7 (Homo sapiens, UniProt Q9NYK1)
# Construct: expressed in transfected cells; host or cells: HEK 293
# assay-name: Reporter gene assay, HEK293-TLR7 (NF-kB-driven luciferase)
# Type: cell-based
# condition-info: HEK293-TLR7; read-out: EC50 in HEK293-TLR7 assay
I only need the number, in µM, no unit after it.

Query string: For Nc1nc2ccccc2c2cc(CCc3ccccc3)cnc12 , what is its reported EC50?
Result string: 2.44

Query string: If you can, please state the reported EC50 value of Cc1ccc2c(c1)nc(N)c1ncccc12 .
Result string: 15.8

Query string: Which EC50 value belongs to Nc1nc2ccccc2c2ccc(=O)[nH]c12 ?
Result string: 24.1

Query string: I am curious: what EC50 value has been reported for CCc1cnc2c(N)nc3ccccc3c2c1 [Example 30, 2-ethylbenzo[f][1,7]naphthyridin-5-amine] ?
Result string: 8.64
